SUBJECT OF TEST: Lanosterol 14-alpha demethylase (Candida albicans (strain SC5314 / ATCC MYA-2876) (Yeast), UniProt P10613)
Sequence (P10613 whole entry): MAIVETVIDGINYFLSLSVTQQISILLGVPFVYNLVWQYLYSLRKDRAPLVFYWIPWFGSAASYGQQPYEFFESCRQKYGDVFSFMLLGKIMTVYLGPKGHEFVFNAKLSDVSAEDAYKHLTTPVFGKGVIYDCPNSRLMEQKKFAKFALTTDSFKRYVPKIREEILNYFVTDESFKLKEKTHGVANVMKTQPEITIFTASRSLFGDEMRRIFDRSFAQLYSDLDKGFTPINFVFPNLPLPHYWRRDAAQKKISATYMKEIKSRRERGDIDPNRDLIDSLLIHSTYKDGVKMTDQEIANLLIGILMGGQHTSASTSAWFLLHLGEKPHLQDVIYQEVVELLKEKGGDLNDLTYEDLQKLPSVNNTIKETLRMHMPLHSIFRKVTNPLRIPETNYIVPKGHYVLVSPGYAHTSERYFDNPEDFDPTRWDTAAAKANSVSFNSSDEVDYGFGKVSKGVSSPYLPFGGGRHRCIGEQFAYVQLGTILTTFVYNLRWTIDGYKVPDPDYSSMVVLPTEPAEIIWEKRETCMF
ASSAY TEXT: Inhibition of CYP51 in Candida albicans assessed as inhibition of microbe growth incubated for 48 hrs by CLSI M27-A3 guideline based method
Assign labels as follows, please: Met for MIC50 below 0.03 µg/mL; Not met for MIC50 equal to or exceeding 0.03 µg/mL.

{"columns": ["MOLECULE", "LABEL VALUE"],
 "data": [
  ["OC(Cn1cnnn1)(c1ccc(F)cc1F)C(F)(F)c1ccc(C#Cc2ccc(NCC(F)(F)F)cc2)cn1 (stereo not drawn)", "Met"],
  ["O[C@@](Cn1cnnn1)(c1ccc(F)cc1F)C(F)(F)c1ccc(-c2ccc(OCC(F)(F)F)cc2)cn1", "Met"],
  ["OC(Cn1cnnn1)(c1ccc(F)cc1F)C(F)(F)c1ccc(C#Cc2ccc(OCc3ccc(F)cc3)cc2)cn1 (stereo not drawn)", "Not met"],
  ["N#Cc1ccc(COc2ccc(C#Cc3ccc(C(F)(F)C(O)(Cn4cnnn4)c4ccc(F)cc4F)nc3)cc2)cc1 (stereo in doubt; 7f)", "Not met"],
  ["CC[C@@H]([C@H](C)O)n1ncn(-c2ccc(N3CCN(c4ccc(OC[C@@H]5CO[C@@](Cn6cncn6)(c6ccc(F)cc6F)C5)cc4)CC3)cc2)c1=O", "Met"]
]}

Exercise: Determine if OC(Cn1cnnn1)(c1ccc(F)cc1F)C(F)(F)c1ccc(C#Cc2cccc(F)c2)cn1 (stereo not drawn) shows MIC50 strictly lower than 0.03 µg/mL.
Solution: Met

Exercise: Just wondering, is MIC50 of OC(Cn1cnnn1)(c1ccc(F)cc1F)C(F)(F)c1ccc(C#Cc2ccc(OCc3ccc(CC(F)F)cc3)cc2)cn1 (single isomer, unassigned; (+)) below 0.03 µg/mL?
Solution: Not met

Exercise: Report whether reported MIC50 is lower than 0.03 µg/mL (strictly) for N#Cc1ccc(COc2ccc(C#Cc3ccc(C(F)(F)C(O)(Cn4cnnn4)c4ccc(F)cc4F)nc3)cc2)cc1 (single isomer, unassigned; (+))
Solution: Met

Exercise: Lab note: confirm whether the reported MIC50 for this molecule is below 0.03 µg/mL, equality not counting. molecule: OC(Cn1cnnn1)(c1ccc(F)cc1F)C(F)(F)c1ccc(C#Cc2cccc(Cl)c2)cn1 (stereo not drawn)
Solution: Not met

Exercise: Criterion: MIC50 strictly below 0.03 µg/mL. Is it met by OC(Cn1cnnn1)(c1ccc(F)cc1F)C(F)(F)c1ccc(C#Cc2ccc(OCc3ccc(C(F)(F)F)cc3)cc2)cn1 (stereo not drawn) ?
Solution: Not met

Exercise: Dear reviewer, please state whether OC(Cn1cnnn1)(c1ccc(F)cc1F)C(F)(F)c1ccc(C#Cc2ccc(C(F)(F)F)cc2)cn1 (stereo not drawn) has MIC50 strictly beneath 0.03 µg/mL.
Solution: Met

Exercise: Please state whether MIC50 is below 0.03 µg/mL for OC(Cn1cnnn1)(c1ccc(F)cc1F)C(F)(F)c1ccc(C#Cc2ccc(OCc3ccc(CC(F)F)cc3)cc2)cn1 (stereo in doubt; 7e)
Solution: Not met

Exercise: Answer whether the molecule N#Cc1ccc(OCc2ccc(C#Cc3ccc(C(F)(F)C(O)(Cn4cnnn4)c4ccc(F)cc4F)nc3)cc2)cc1 (stereo not drawn) has MIC50 strictly less than 0.03 µg/mL
Solution: Not met

Exercise: Hello, is MIC50 of the following molecule strictly smaller than 0.03 µg/mL? N#Cc1ccc(COc2ccc(C#Cc3ccc(C(F)(F)C(O)(Cn4cnnn4)c4ccc(Cl)cc4F)nc3)cc2)cc1 (stereo not drawn)
Solution: Not met

Exercise: Could you please tell me whether MIC50 recorded for OC(Cn1cncn1)(Cn1cncn1)c1ccc(F)cc1F is less than 0.03 µg/mL?
Solution: Not met

Exercise: Dear reviewer, please state whether N#Cc1ccc(COc2ccc(C#Cc3ccc(C(F)(F)C(O)(Cn4cnnn4)c4ccc(F)cc4F)nc3)cc2)c(F)c1 (stereo not drawn) has MIC50 strictly beneath 0.03 µg/mL.
Solution: Not met

Exercise: is_below(MIC50, 0.03 µg/mL) for OC(Cn1cnnn1)(c1ccc(F)cc1F)C(F)(F)c1ccc(C#Cc2ccc(F)cc2)cn1 (single isomer, unassigned; (+)) ?
Solution: Met

Exercise: Please indicate whether the reported MIC50 of OC(Cn1cnnn1)(c1ccc(F)cc1F)C(F)(F)c1ccc(C#Cc2ccc(Cl)cc2)cn1 (stereo not drawn) is strictly below 0.03 µg/mL.
Solution: Met
